Measured MIC, listed per entry.
# Tested on: M. tuberculosis mc^27000
# Protocol Text: microbe, parasite or virus in culture
# Format: cell-based
# Cond: Mycobacterium tuberculosis, 120 h; […]; range of assayed concentrations that bounds the mean of three independent determinations; read-out: mc^27000 7H9 MIC
Measurement Kind: MIC

Molecule	Measurement Kind	Result
CCN(CC)CCSCC(=O)O[C@H]1C/C(C)=C\CC23CCCC1C2C(=O)CC3 (stereo partly drawn)	MIC	50 µg/mL
C=C1C[C@@H](OC(=O)CSCCN(CC)CC)C2CCCC3(CCC(=O)C23)C[C@@H]1O (stereo partly drawn) [Compound 20a]	MIC	50 to 100 µg/mL
C=C1C[C@@H](OC(=O)CO)C2CCCC3(CCC(=O)C23)C[C@@H]1O (stereo partly drawn)	MIC	> 200 µg/mL
C=C[C@]1(C)C[C@@H](OC(=O)CSCCN(CC)CC)C2(C)C(C)CCC3(CCC(=O)C32)[C@@H](C)[C@@H]1O (stereo partly drawn) [tiamulin (3), tiamulin, reference compound]	MIC	12 to 25 µg/mL
C=CC1(C)C[C@@H](OC(=O)CO)C2(C)C(C)CCC3(CCC(=O)C32)[C@@H](C)[C@@H]1O (stereo partly drawn) [Pleuromutilin (1), Pleuromutilin, reference compound]	MIC	25 to 50 µg/mL
C=C1C[C@@H](OC(=O)CSCCN(CC)CC)C2CCCC3(CCC(=O)C23)C[C@H]1O (stereo partly drawn) [Compound 20c]	MIC	12 to 25 µg/mL
